All values here come from patent US20140357713A1.

system: Staphylococcus aureus; experiment: Extended time kill study, Example 34 (0 to 24 h); type: cell-based; details: 2 × MIC, 6 h
Counter-ions that a name gives are not always drawn.
experimental-endpoint: Viable counts, Staphylococcus aureus time kill study

Some entries whose results are on file:
> print(dat)
                                   compound   measured.value
1  CCCCCCCCCCCCOC(=O)C(C)NCCN(CC)CC.Cl (centres unmarked)  <3 Log10 CFU/mL
2  CCCCCCCCCCCCOC(=O)C(C)NC.Cl (centres unmarked)  <3 Log10 CFU/mL
3  CCCCCCCCCCCCOC(=O)C(C)NC(C)C.Cl (centres unmarked)  <3 Log10 CFU/mL
4  CCCCCCCCCCCCOC(=O)C(C)N(C)C (centres unmarked) [Nex-05, hydrochloride]  <3 Log10 CFU/mL

Then this compound:
Lookup: Notebook: pull reported Viable counts, Staphylococcus aureus time kill study for Staphylococcus aureus, entry CCCCCCCCCCCCOC(=O)C(C)NCCO.Cl (centres unmarked)
Found: <3 Log10 CFU/mL

###

Listed here are compounds together with their documented Viable counts in Log10 CFU/mL.
tested on: Aspergillus niger; experiment: Extended time kill study, Example 34 (0 to 24 h); type: cell-based; conditions: 4 × MIC, 4 h
Where a name gives a salt, the structure may show the parent alone.
Kindly answer with a numeric value in Log10 CFU/mL, unit omitted.

Completed entries (count: 4):
> print(dat)
                                   compound     assayed.system          experimental.endpoint  measured.value
1  CCCCCCCCCCCCOC(=O)C(C)NC.Cl (centres unmarked)  Aspergillus niger  Viable counts in Log10 CFU/mL            3.85
2  CCCCCCCCCCCCOC(=O)C(C)NCCO.Cl (centres unmarked)  Aspergillus niger  Viable counts in Log10 CFU/mL            5.28
3  CCCCCCCCCCCCOC(=O)C(C)NC(C)C.Cl (centres unmarked)  Aspergillus niger  Viable counts in Log10 CFU/mL            3.60
4  CCCCCCCCCCCCOC(=O)C(C)NCCN(CC)CC.Cl (centres unmarked)  Aspergillus niger  Viable counts in Log10 CFU/mL            5.00

Please look at the following compound next.
Lookup: Returns the measured Viable counts in Log10 CFU/mL for the input compound. Input: CCCCCCCCCCCCOC(=O)C(C)N(C)C (centres unmarked) [Nex-05, hydrochloride]
Found: 3

###

system: Candida albicans; assay: Extended time kill study, Example 34 (0 to 24 h); type: cell-based; conditions: 1 × MIC, 6 h
Where a name gives a salt, the structure may show the parent alone.
// Viable counts in Log10 CFU/mL lookup, one value per entry
Answer in Log10 CFU/mL, number only, no unit symbol.

Previously resolved entries follow.
> print(dat)
                                   molecule          experimental.endpoint  endpoint.unit  measured.value
1  CCCCCCCCCCCCOC(=O)C(C)NCCO.Cl (centres unmarked)  Viable counts in Log10 CFU/mL   Log10 CFU/mL            5.54
2  CCCCCCCCCCCCOC(=O)C(C)NC.Cl (centres unmarked)  Viable counts in Log10 CFU/mL   Log10 CFU/mL            4.40
3  CCCCCCCCCCCCOC(=O)C(C)N(C)C (centres unmarked) [Nex-05, hydrochloride]  Viable counts in Log10 CFU/mL   Log10 CFU/mL            6.02

Lookup: Item CCCCCCCCCCCCOC(=O)C(C)NC(C)C.Cl (centres unmarked) has what recorded Viable counts in Log10 CFU/mL?
Found: 5.09

Lookup: Param item: CCCCCCCCCCCCOC(=O)C(C)NCCN(CC)CC.Cl (centres unmarked)
Found: 6.21
